# method notes: yeast display, Sf9 membrane polyspecificity reagent, FACS + sequencing; frameworks hold sequencing errors
reported property: polyreactivity (PSR sort gate)

Please review the following examples before continuing.
{"chain sequence": "QVQLHESGRGLVQAGGSLRLSCAATATISYAGPMGWYRQAPGKEREFVAGIGVGSNTNYADSVKGRYTIIRDNAKNTVYLQMNSLKPEDTAVYSCAVGGYAPLGRPYWGQGTQVTVSS", "obs value": "low polyreactivity"}
{"chain sequence": "QVQLVESGGGLVQAGGSLSLSCAASGRTFIRNAMGWYRQAPGKERELVAAINSGGITNYADSVKGRFTISRDNAKNTVYLQMNSLKPEDTAVYYCNARQVLFGLYLRAYPFEYWGQGTQVTVSS", "obs value": "low polyreactivity"}
{"chain sequence": "QVQLVESGGGLVQAGGSLRLSSAASAGIFAPNAMGLYRQAPGTEREFVAAISTGGGSTRYADSVKGRFTISRDNAKNTVYLQMNSLKPEDTAVYYCAATRVGVRRMDYWGQGTQVTVSS", "obs value": "low polyreactivity"}
{"chain sequence": "QVQLVESGGGLVQAGGSLRLSCAASGNIFSFYTMGWYRQAPGKERELVAAISWSGTSTYYADSVKGRFTISRDNAKNTVYLQMNSLKPEDTAVYYCAAERWWSGYEYWGQGTQVTVSS", "obs value": "high polyreactivity"}
{"chain sequence": "QVQRGESGGGLVQAGGSLRLSCAASAIIIYYYAMGCYRQAPGNERELVAGISYSGGSTYADSVKGRFTISRDNAKLTVYLQMNSLKPEDTAVYYCAAEYEYGGHWYDYWGQGTQETVSS", "obs value": "low polyreactivity"}

input: Fill blank: measured polyreactivity (PSR sort gate) of the sequence `QVQLVESGGGLVQAGGSLRLSCAASGRTLVLYAMGWYRQAPGKERELVAAITWSGDSTYYADSVKGRFTISRDNAKNTVYLQMNSLKPEDTAVYYCAADKSYRRVYYWGQGTQVTVSS` is ____.
output: low polyreactivity

input: Entry to check: `QVQLVESGGGLVQAGGSLRLSCAASGSIFIPNAMGWYRQAPGKERELVAAITSGGRTYYADSVKGRFTISRDNAKNTVYLQMNSLKPEDTAVYYCAARSGYRYVESDYWGQGTQVTVSS`
output: high polyreactivity

input: Entry to check: `QVQLVESGGGLVQAGGSLRLSCAASGFTFYGYGMGWYRQAPGKERELVAGISSGGGSTFYADSVKGRFTISRDNAKNTVYLQMNSLKPEDTAVYYCAALHYGGYFSYYPYYYWGQGTQVTVSS`
output: low polyreactivity

input: Entry to check: `QFQLVESGGGLVQAGGSLRLSCAASGSIFQSYAMVWYRQAPGKERELVAAITRSGGRTYYADSVKGRFTISRDNAKNTVYLQMNSLKPEDTAVYFCAAFGWGYGYWGQGTQVTVSS`
output: high polyreactivity

input: Entry to check: `QVQLVESGGGLVQAGGSLRLSCAASGRTIVYYAMGRYRQAPGKERELVAAISSSGSTYYADSVKGRFTISRDNAKNTVYLQMNSLKPEDTAVYYCATTHDYWLWGMGYWGQGTQVTVSS`
output: high polyreactivity

input: Entry to check: `QVQLVESGGGLVQAGGSLRLSCAASGLTFEWYAMGWYRQAPGKERELVAAISWNGGSTYYADSVKGRFTISRDNAKNTVYLQMNSLKPEDTAVYYCATSSPRRYYWGQGTLVTVSS`
output: high polyreactivity
